Data provenance: patent US12139470B2

# assay.method.text: Mouse liver microsome assay (half-life, intrinsic clearance)
# measurement.conditions: half-life when incubated with mouse liver microsomes
Consider the following compounds; for each one, report its T1/2.

For orientation, consider the following solved cases.
compound | T1/2
CC(C)(CN)CNC(=O)C[C@@H]1CCC[C@]2(C1)OOC1(O2)C2CC3CC(C2)CC1C3 (some centres unmarked) [12d] | 1.07 h
Cc1ncc2n1-c1ccc(Cl)cc1C(c1ccccc1F)=NC2 | 0.0275 h
CC(C)(N)CNC(=O)C[C@@H]1CCC[C@]2(C1)OOC1(O2)C2CC3CC(C2)CC1C3 (some centres unmarked) [12a] | 2.82 h

For each of the compounds below, state T1/2.
1. NC1CCN(C(=O)C[C@@H]2CCC[C@]3(C2)OOC2(O3)C3CC4CC(C3)CC2C4)CC1 (some centres unmarked) [12i]
2. NC(=O)CNC(=O)C[C@@H]1CCC[C@]2(C1)OOC1(O2)C2CC3CC(C2)CC1C3 (some centres unmarked) [12b]
3. O=C(C[C@@H]1CCC[C@]2(C1)OOC1(O2)C2CC3CC(C2)CC1C3)N1CCNCC1 (some centres unmarked) [12g]
4. NCCNC(=O)C[C@@H]1CCC[C@]2(C1)OOC1(O2)C2CC3CC(C2)CC1C3 (some centres unmarked) [12c]
5. CC(C)(N)CNC(=O)C[C@H]1CC[C@]2(CC1)OO[C@]1(O2)C2CC3CC(C2)CC1C3 [2a, arterolane, reference compound]

1. 1.41 h
2. 0.622 h
3. 0.425 h
4. 1.41 h
5. 2.13 h
